meta.source: patent US20220177594A1

Overview of recorded koff for various binders
Target: T1, ANTIBODY EXPRESSION CONTROL
T1 construct: also called mouse anti-canine antibody (capture reagent of the expression control ELISA)
Test: SPR Biacore, expression control
Respond numerically; units are s⁻¹ and should not be typed.

Examples from the recorded data:
Mu_10F07_VH (SEQ ID NO: 39)_I101A (antibody, V domains shown) VH: DVKLVESGEGLVKPGGSLKLSCAASGFTFSSYAMSWVRQTPEKRLEWVTYISSGGDYFYYADTVKGRFTISRDNARNTLYLQMSSLKSEDTAMYYCTRDPATGTFAYWGQGTLVTVSA VL: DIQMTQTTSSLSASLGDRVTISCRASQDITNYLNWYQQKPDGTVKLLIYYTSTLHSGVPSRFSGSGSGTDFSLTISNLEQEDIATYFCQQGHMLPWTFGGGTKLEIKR
4.49e-05
Mu_02D09_VL (SEQ ID NO: 33)_I29A (antibody, V domains shown) VH: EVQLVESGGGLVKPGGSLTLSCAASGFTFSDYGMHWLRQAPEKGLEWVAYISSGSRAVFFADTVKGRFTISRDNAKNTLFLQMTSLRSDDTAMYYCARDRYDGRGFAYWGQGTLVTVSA VL: DIVLTQSPATLSVTPGDSVSLSCRASQSASNNLHWYQQTSHESPRLLITYASQSISGIPSRFSGSGSGTDFTLSINSVETEDFGMYFCQQSNSWPLTFGAGTKLELKR
9.47e-05

With those in mind, consider the next binder.
query: What does the record list as koff for Mu_10F07_VL (SEQ ID NO: 41)_W96A (antibody, V domains shown) VH: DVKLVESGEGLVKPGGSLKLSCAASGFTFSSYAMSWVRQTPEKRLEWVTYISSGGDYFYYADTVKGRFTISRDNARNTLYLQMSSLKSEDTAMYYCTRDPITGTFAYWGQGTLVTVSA VL: DIQMTQTTSSLSASLGDRVTISCRASQDITNYLNWYQQKPDGTVKLLIYYTSTLHSGVPSRFSGSGSGTDFSLTISNLEQEDIATYFCQQGHMLPATFGGGTKLEIKR ?
result: 9.49e-05
